system: Escherichia coli; test: Antibacterial activity against Escherichia coli DH10B by agar dilution technique; type: functional
REPORTED_METRIC: MIC (µg/mL)

>>> print(df.to_string())
                                 mol_smiles  reported_metric  test_value
0  CCN1CCN(C(=O)N[C@@H](C(=O)N[C@@H]2C(=O)N3[C@@H]2SC(C)(C)[C@@H]3C(=O)O)c2ccccc2)C(=O)C1=O              MIC           1
1  CO[C@@]1(NC(=O)Cc2cccs2)C(=O)N2C(C(=O)O)=C(COC(N)=O)CS[C@@H]21              MIC           4
2  CC1(C)S[C@@H]2[C@H](NC(=O)[C@H](N)c3ccc(O)cc3)C(=O)N2[C@H]1C(=O)O              MIC           2
3  CC(=O)OCC1=C(C(=O)O)N2C(=O)[C@@H](NC(=O)Cc3cccs3)[C@H]2SC1              MIC           2

###

Let's look at some molecules and their measured log10 of Km.
test system: Acinetobacter johnsonii; experiment: Activity of Acinetobacter johnsonii SCO1
REPORTED_METRIC: log10 of Km (log10 of the value in µM)

>>> df
                                   molecule  test_value
0  CO/N=C(\C(=O)N[C@@H]1C(=O)N2C(C(=O)O)=C(COC(C)=O)CS[C@H]12)c1csc(N)n1        3.30
1  CCN1CCN(C(=O)N[C@@H](C(=O)N[C@@H]2C(=O)N3[C@@H]2SC(C)(C)[C@@H]3C(=O)O)c2ccccc2)C(=O)C1=O        1.00
2  C[C@@H](O)[C@H]1C(=O)N2C(C(=O)O)=C(SCCNC=N)C[C@H]12 [IMIPENEM ANHYDROUS]        3.58
3  CC1(C)S[C@@H]2[C@H](NC(=O)[C@H](C(=O)O)c3ccsc3)C(=O)N2[C@H]1C(=O)O        1.90
4  CC1(C)S[C@@H]2[C@H](NC(=O)[C@H](N)c3ccccc3)C(=O)N2[C@H]1C(=O)O        1.60
5  CC(C)(O/N=C(\C(=O)N[C@@H]1C(=O)N2C(C(=O)[O-])=C(C[n+]3ccccc3)CS[C@H]12)c1csc(N)n1)C(=O)O        2.78
6  CO/N=C(\C(=O)N[C@@H]1C(=O)N2C(C(=O)O)=C(COC(N)=O)CS[C@H]12)c1ccco1        2.81
7  CC(=O)OCC1=C(C(=O)O)N2C(=O)[C@@H](NC(=O)Cc3cccs3)[C@H]2SC1        2.08
8  CC1(C)S[C@@H]2[C@H](NC(=O)Cc3ccccc3)C(=O)N2[C@H]1C(=O)O        1.30

###

test system: Acinetobacter johnsonii; assay: Activity of Acinetobacter johnsonii SCO1
// kcat lookup, one value per entry
REPORTED_METRIC: kcat

>>> print(df.to_string())
                                   molecule              system_name  test_value
0  CO/N=C(\C(=O)N[C@@H]1C(=O)N2C(C(=O)O)=C(COC(N)=O)CS[C@H]12)c1ccco1  Acinetobacter johnsonii    0.05 s⁻¹
1  CC(=O)OCC1=C(C(=O)O)N2C(=O)[C@@H](NC(=O)Cc3cccs3)[C@H]2SC1  Acinetobacter johnsonii     0.1 s⁻¹
2  C[C@@H](O)[C@H]1C(=O)N2C(C(=O)O)=C(S[C@@H]3CN[C@H](C(=O)N(C)C)C3)[C@H](C)[C@H]12  Acinetobacter johnsonii  < 0.01 s⁻¹
3  CC1(C)S[C@@H]2[C@H](NC(=O)[C@H](N)c3ccccc3)C(=O)N2[C@H]1C(=O)O  Acinetobacter johnsonii     270 s⁻¹
4  CO/N=C(\C(=O)N[C@@H]1C(=O)N2C(C(=O)[O-])=C(C[N+]3(C)CCCC3)CS[C@H]12)c1csc(N)n1 [CEFEPIME]  Acinetobacter johnsonii   > 1.5 s⁻¹
5  CC1(C)S[C@@H]2[C@H](NC(=O)Cc3ccccc3)C(=O)N2[C@H]1C(=O)O  Acinetobacter johnsonii     150 s⁻¹

###

Let's look at some compounds and their measured Ratio.
tested on: Acinetobacter johnsonii; test: Ratio of kcat to Km for Acinetobacter johnsonii SCO1
REPORTED_METRIC: Ratio

>>> df
                                   compound              system_name     test_value
0  CO/N=C(\C(=O)N[C@@H]1C(=O)N2C(C(=O)O)=C(COC(N)=O)CS[C@H]12)c1ccco1 [CEFUROXIME]  Acinetobacter johnsonii  0.08 mM⁻¹ s⁻¹
1  CC1(C)S[C@@H]2[C@H](NC(=O)Cc3ccccc3)C(=O)N2[C@H]1C(=O)O  Acinetobacter johnsonii  7500 mM⁻¹ s⁻¹
2  CC(C)(O/N=C(\C(=O)N[C@@H]1C(=O)N2C(C(=O)[O-])=C(C[n+]3ccccc3)CS[C@H]12)c1csc(N)n1)C(=O)O [CEFTAZIDIME]  Acinetobacter johnsonii   0.5 mM⁻¹ s⁻¹

###

// reported MIC for each item listed
system: Escherichia coli; assay: Antibacterial activity against Escherichia coli DH10B by agar dilution technique; assay type: functional
REPORTED_METRIC: MIC (µg/mL)

                                 mol_smiles  reported_metric  measure_unit  test_value
0  CC(C)(O/N=C(\C(=O)N[C@@H]1C(=O)N2C(C(=O)[O-])=C(C[n+]3ccccc3)CS[C@H]12)c1csc(N)n1)C(=O)O              MIC         µg/mL        0.06
1  CO/N=C(\C(=O)N[C@@H]1C(=O)N2C(C(=O)O)=C(COC(N)=O)CS[C@H]12)c1ccco1              MIC         µg/mL           2
2  CO/N=C(\C(=O)N[C@@H]1C(=O)N2C(C(=O)O)=C(COC(C)=O)CS[C@H]12)c1csc(N)n1              MIC         µg/mL        0.12
3  CC1(C)S[C@@H]2[C@H](NC(=O)[C@H](C(=O)O)c3ccsc3)C(=O)N2[C@H]1C(=O)O              MIC         µg/mL           2
